experiment: Pharmacokinetics of Ewha-18278 after IV and oral administration to rats (non-compartmental analysis, HPLC/UV plasma assay); type: in vivo, Sprague-Dawley rats; settings: male, Sprague-Dawley, rat, plasma, po, 20 mg/kg, PO 20 mg/kg, DMSO formulation (2 mg/mL)
result_type: Cmax (ng/mL)
Supply the numeric figure in ng/mL, leaving out any unit text.

Quick check: Cmax of CCCc1c(-c2ccccc2)nn(-c2ccccn2)c1O [Ewha-18278] ?
4680

====

test: Pharmacokinetics of Ewha-18278 after IV and oral administration to rats (non-compartmental analysis, HPLC/UV plasma assay); type: in vivo, Sprague-Dawley rats; conditions: male, Sprague-Dawley, rat, plasma, po, 20 mg/kg, PO 20 mg/kg, DMSO formulation (2 mg/mL)
result_type: Vd/F (L)
Supply the numeric figure in L, leaving out any unit text.

Quick check: Vd/F of `CCCc1c(-c2ccccc2)nn(-c2ccccn2)c1O` ?
6.06

====

assay: Pharmacokinetics of Ewha-18278 after IV and oral administration to rats (non-compartmental analysis, HPLC/UV plasma assay); format: in vivo, Sprague-Dawley rats; conditions: male, Sprague-Dawley, rat, plasma, po, 20 mg/kg, PO 20 mg/kg, diazepam injection-based formulation (2 mg/mL)
result_type: AUC(0-inf) (ng·h/mL)
Supply the numeric figure in ng·h/mL, leaving out any unit text.

Quick check: AUC(0-inf) of `CCCc1c(-c2ccccc2)nn(-c2ccccn2)c1O` ?
9250
